Experiment: NCI Yeast Anticancer Drug Screen. Data for the mlh1 rad18 strain (AID 175)
Settings: S. cerevisiae mlh1 rad18 strain growth inhibition; at 50.0 µM (retest, dose inferred, filed as 5.0); stronger effect = higher value
This is part of a sample that, as a whole, favours compounds with a hit. Of some 79,000 tested, about 15% had one in any assay.
// map growth inhibition onto a label; ranges LOW: < 20%; MID: ≥ 20% and < 80%; HIGH: ≥ 80%

Check out these entries, answers already filled in.
OCCN1c2ccccc2Sc2ccc(Cl)cc21 :: HIGH
COC(=O)C1=Cc2cc3c(cc2[C@H](c2ccc4c(c2)OCO4)C1C(=O)OC)OCO3 (stereo partly drawn) :: MID
O=C1Nc2ccccc2C(=O)C1(Cc1ccccc1)C(=O)c1ccccc1 (stereo not drawn) :: MID

Given `CCCCCCCCN/N=C(/C)CCCCCO` , name the class its growth inhibition places it in. LOW

Class (by measured growth inhibition) for O=C1OC2=C(CCc3nc(-c4ccccc4)sc32)C(N(c2ccccc2)c2ccccc2)C1(Cl)Cl (stereo not drawn) LOW

Note: place this compound into its band. Item: `[N-]=[N+]=Nc1c(C=O)c(=O)n(-c2ccccc2)c2ccccc12` MID

Note: place this compound into its band. Item: `CC(=O)Nc1ccc(-c2csc(Nc3ccnc4cc(Cl)ccc34)n2)cc1` MID

Bin? `Fc1ccc(NC(=S)SCc2ccc(Cl)cc2)c(F)c1` HIGH

Note: place this compound into its band. Item: `COc1ccc(C2CC(=O)CC(=O)C2)cc1` LOW

Consider `O=c1[nH]c2c([N+](=O)[O-])cc(Cl)cc2nc1/C=C(\O)c1ccco1` . To which growth inhibition class does it belong? MID

====

Experiment: NCI Yeast Anticancer Drug Screen. Data for the mec2-1 strain (AID 157)
Conditions: S. cerevisiae mec2-1 strain, at 50.0 µM (retest, dose inferred, filed as 5.0), stronger effect = higher value
Compounds without any hit were thinned out: in the full panel of roughly 79,000, 15% have a hit.
As shown below, each of these compounds has a reported growth inhibition value.
Give just the numeric value; % need not be written.

Clc1ccccc1C(Cc1c(Cl)cccc1Cl)Cn1ccnc1 (stereo not drawn) :: 78

So, Cc1cc(C)c(C(=O)C(Br)C(Br)c2ccccc2)c(C)c1 (stereo not drawn) ? Its growth inhibition was 97

# compound `CC1=C(C(=O)Nc2ccccc2Cl)C(c2cccc([N+](=O)[O-])c2)C(C(=O)Nc2ccccc2Cl)=C(C)N1` ; its growth inhibition = 67

====

Experiment: NCI Yeast Anticancer Drug Screen. Data for the mec2-1 strain (AID 157)
Conditions: S. cerevisiae mec2-1 strain, at 5.0 µM (retest, dose inferred, filed as 0.5), stronger effect = higher value
The panel holds about 79,000 compounds, 15% with a hit somewhere; the sample as a whole holds those more often.
measurement.label: growth inhibition (%)
Numeric answer only, unit % assumed.

Solved cases below.
Oc1ccc2ccccc2c1CNc1ccc2ccccc2c1 :: 10
CC(=O)Oc1c(Br)cc(Br)cc1Br :: -5
Nc1ccc2c(c1)C(=O)c1ccccc1-2 :: 3
C/C(=N\O)c1ccc2c3c(ccc([N+](=O)[O-])c13)CC2 :: -9
Nc1ccc(Cl)c2ccccc12 :: -4
Cc1cc(N=NC(N)=S)c2ccccc2c1O :: -3

Would you kindly look at the next entry?
Reported growth inhibition ( Cc1cc(S(=O)(=O)Nc2nc(N)nc(N(C)C)n2)c(SC(C(=O)O)c2ccccc2)cc1Cl (configuration not stated) ) = -3
